Value source: patent US20240358849A1

Listing of recorded Kd by entry.
- testedTarget: T1, IL-2hex, mutant human IL-2 (deltaA1/T3A/F42A/Y45A/L72G/C125S) (human, UniProt P60568 22-153)
- T1 chain: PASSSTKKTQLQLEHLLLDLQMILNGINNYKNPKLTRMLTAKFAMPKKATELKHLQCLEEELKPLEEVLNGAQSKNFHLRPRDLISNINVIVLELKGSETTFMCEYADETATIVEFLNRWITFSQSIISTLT
- assayOverview: BLI per 6.1.3; column head IL-2 KD
Reply with just the number (in nM).

binder | measurementUnits | Kd
D029 HV3LV1 (bispecific antibody, V domains shown, also called D029L-Rev1/S55L:T30R:S32F; Rev1/S55L:T30R:S32F) VH: EVQLVESGGGLVQPGGSLRLSCAASGFTFRWFFMSWVRQAPGKGLEWVSWIGPSGLYTDYADSVKGRFTISRDNSKNTLYLQMNSLRAEDTAVYYCARSQYGRYYSPDYYFDYWGQGTLVTVSS VL: DIQMTQSPSSLSASVGDRVTITCRASQALGFYLNWYQQKPGKAPKLLIYAASSLSSGVPSRFSGSGSGTDFTLTISSLQPEDFATYYCQQGRTPPLTFGQGTKVEIKR | nM | 427
D029 HV3LV2 (bispecific antibody, V domains shown, also called D029L-Rev1:Q27G:P94Y:L96F/S55L:T30R:S32F) VH: EVQLVESGGGLVQPGGSLRLSCAASGFTFRWFFMSWVRQAPGKGLEWVSWIGPSGLYTDYADSVKGRFTISRDNSKNTLYLQMNSLRAEDTAVYYCARSQYGRYYSPDYYFDYWGQGTLVTVSS VL: DIQMTQSPSSLSASVGDRVTITCRASGALGFYLNWYQQKPGKAPKLLIYAASSLSSGVPSRFSGSGSGTDFTLTISSLQPEDFATYYCQQGRTYPFTFGQGTKVEIKR | nM | 331

Looking for the measured Kd of D029 HV2LV3 (bispecific antibody, V domains shown, also called Rev1-Q27G:L96F/S55L:S32F; two-in-one antibody within FB-675) VH: EVQLVESGGGLVQPGGSLRLSCAASGFTFTWFFMSWVRQAPGKGLEWVSWIGPSGLYTDYADSVKGRFTISRDNSKNTLYLQMNSLRAEDTAVYYCARSQYGRYYSPDYYFDYWGQGTLVTVSS VL: DIQMTQSPSSLSASVGDRVTITCRASGALGFYLNWYQQKPGKAPKLLIYAASSLSSGVPSRFSGSGSGTDFTLTISSLQPEDFATYYCQQGRTPPFTFGQGTKVEIKR , can you help?
217

Again, but for D029 HV5LV1 (bispecific antibody, V domains shown, also called Rev1/S55L:T30R:S32A) VH: EVQLVESGGGLVQPGGSLRLSCAASGFTFRWAFMSWVRQAPGKGLEWVSWIGPSGLYTDYADSVKGRFTISRDNSKNTLYLQMNSLRAEDTAVYYCARSQYGRYYSPDYYFDYWGQGTLVTVSS VL: DIQMTQSPSSLSASVGDRVTITCRASQALGFYLNWYQQKPGKAPKLLIYAASSLSSGVPSRFSGSGSGTDFTLTISSLQPEDFATYYCQQGRTPPLTFGQGTKVEIKR
100

Again, but for D029 HV3LV4 (bispecific antibody, V domains shown, also called D029-Rev1:Q27G:P94Y/S55L:T30R:S32F) VH: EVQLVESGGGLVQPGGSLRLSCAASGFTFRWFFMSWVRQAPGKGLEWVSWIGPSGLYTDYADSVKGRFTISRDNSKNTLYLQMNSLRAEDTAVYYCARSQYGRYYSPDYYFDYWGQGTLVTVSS VL: DIQMTQSPSSLSASVGDRVTITCRASGALGFYLNWYQQKPGKAPKLLIYAASSLSSGVPSRFSGSGSGTDFTLTISSLQPEDFATYYCQQGRTYPLTFGQGTKVEIKR
1100

Again, but for D029 HV2LV1 (bispecific antibody, V domains shown, also called Rev1/S55L:S32F) VH: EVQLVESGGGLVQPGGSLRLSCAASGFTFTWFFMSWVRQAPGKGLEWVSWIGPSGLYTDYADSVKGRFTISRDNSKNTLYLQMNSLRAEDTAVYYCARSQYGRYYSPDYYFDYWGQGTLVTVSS VL: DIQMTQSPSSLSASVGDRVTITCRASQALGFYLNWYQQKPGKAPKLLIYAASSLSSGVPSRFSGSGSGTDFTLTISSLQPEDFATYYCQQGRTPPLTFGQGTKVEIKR
528
